All figures here come from patent US6525001B1.

tested on: cocklebur (Xanthium strumarium); test: Test B pre-/postemergence; type: in vivo; set-up: key: 0 is no effect; 10 is complete control; conditions: Rate 250 g/ha, Preemergence
Label key: fulfilled means Plant response rating, Cocklebur under 2; not fulfilled means Plant response rating, Cocklebur of 2 or more.

Is it true that Plant response rating, Cocklebur reported for O=C(c1cccc(C(F)(F)F)c1)c1ccnc(-n2ccc(C(F)(F)F)n2)n1 is less than 2? fulfilled

Is it true that Plant response rating, Cocklebur reported for Cc1cnc(-n2ccc(C(F)(F)F)n2)nc1C(=O)c1cccc(OC(F)(F)F)c1 is less than 2? fulfilled

Is it true that Plant response rating, Cocklebur reported for COc1cnc(-n2ccc(C(F)(F)F)n2)nc1C(=O)c1cccc(C(F)(F)F)c1 is less than 2? fulfilled

Is it true that Plant response rating, Cocklebur reported for Cc1cnc(-c2ccc(C(F)(F)F)cc2)nc1Cn1ccc(C(F)(F)F)n1 is less than 2? not fulfilled

Is it true that Plant response rating, Cocklebur reported for Cc1cnc(-n2ccc(C(F)(F)F)n2)nc1Cn1ccc(C(F)(F)F)n1 is less than 2? not fulfilled

Is it true that Plant response rating, Cocklebur reported for Cc1cnc(-c2ccc(C(F)(F)F)cc2)nc1Cn1nc(C(F)(F)F)cc1C is less than 2? not fulfilled

Is it true that Plant response rating, Cocklebur reported for Cc1cnc(-c2ccc(OC(F)(F)F)cc2)nc1Cc1cccc(C(F)(F)F)c1 is less than 2? fulfilled

Consider now this further compound.
Is it true that Plant response rating, Cocklebur reported for O=C(c1cccc(C(F)(F)F)c1)c1ccnc(-c2ccc(C(F)(F)F)cc2)n1 is less than 2? fulfilled
